Source of measurements: patent US10562935B2

# reported fH fraction helicity; entries follow
- Assay Name: Circular dichroism (CD) spectroscopy of HABD2 peptides in Milli-Q water (Example 1)
- Format: physicochemical
- Study Conditions: 0.5 mM in Milli-Q water; equations 1-3
Bridges are numbered along the chain shown (N, C = ends).
Give the figure only, with no unit attached.

Substance	Test Readout	Quantitative Result
Ac-VSKLRSQLVKRKQN-NH2 [Compound 132]	fH fraction helicity	0.13

query: Identify measured fH fraction helicity corresponding to H-(cyclo-7,11)-VSKLRS[ELVKK]KQN-NH2 (H-VSKLRSELVKKKQN-NH2; lactam 7-11; SMILES CC(C)C[C@H](NC(=O)[C@H](CCCCN)NC(=O)[C@H](CO)NC(=O)[C@@H](N)C(C)C)C(=O)N[C@@H](CCCNC(=N)N)C(=O)N[C@@H](CO)C(=O)N[C@H]1CCC(=O)NCCCC[C@@H](C(=O)N[C@@H](CCCCN)C(=O)N[C@@H](CCC(N)=O)C(=O)N[C@@H](CC(N)=O)C(N)=O)NC(=O)[C@H](CCCCN)NC(=O)[C@H](C(C)C)NC(=O)[C@H](CC(C)C)NC1=O) [Compound 136]
result: 0.14

---

# reported HA binding; entries follow
- Assay Name: Direct HA-binding ELISA of biotinylated peptides on HA coated plates (Example 4)
- Parameters: key: absorbance (color) read at 450 nm
- Study Conditions: as repeated in tables 16, 18, 20
Give the figure only, with no unit attached.

query: Identify measured HA binding corresponding to Ac-(cyclo-10-14, cyclo-15-19)-KIKHVVKLK[KENSE][EKSEK]SKLRSQLVKRK-NH2 [Compound 269]
result: 0.19

---

- Assay Name: Circular dichroism (CD) spectroscopy of linear and stapled peptides in water or 40% TFE/water (Example 3)
- Format: physicochemical
- Study Conditions: λ = 222 nm; in water
Bridges are numbered along the chain shown (N, C = ends).
Test Readout: [0]222 mean residue ellipticity (deg cm^2 dmol^−1)
Give the number; deg cm^2 dmol^−1 is assumed, so skip it.

Completed entries (count: 3):
Substance	[0]222 mean residue ellipticity, deg cm^2 dmol^−1
Ac-(cyclo-7,11)-VSKLRS[ELVKK]KQN-NH2 (Ac-VSKLRSELVKKKQN-NH2; lactam 7-11; SMILES CC(=O)N[C@H](C(=O)N[C@@H](CO)C(=O)N[C@@H](CCCCN)C(=O)N[C@@H](CC(C)C)C(=O)N[C@@H](CCCNC(=N)N)C(=O)N[C@@H](CO)C(=O)N[C@H]1CCC(=O)NCCCC[C@@H](C(=O)N[C@@H](CCCCN)C(=O)N[C@@H](CCC(N)=O)C(=O)N[C@@H](CC(N)=O)C(N)=O)NC(=O)[C@H](CCCCN)NC(=O)[C@H](C(C)C)NC(=O)[C@H](CC(C)C)NC1=O)C(C)C) [Compound 153]	-3.68E+03
Ac-(cyclo-4,8)-NLK[EKIKK]VVKLKDE-NH2 (Ac-NLKEKIKKVVKLKDE-NH2; lactam 4-8; SMILES CC[C@H](C)[C@@H]1NC(=O)[C@H](CCCCN)NC(=O)[C@@H](NC(=O)[C@H](CCCCN)NC(=O)[C@H](CC(C)C)NC(=O)[C@H](CC(N)=O)NC(C)=O)CCC(=O)NCCCC[C@@H](C(=O)N[C@H](C(=O)N[C@H](C(=O)N[C@@H](CCCCN)C(=O)N[C@@H](CC(C)C)C(=O)N[C@@H](CCCCN)C(=O)N[C@@H](CC(=O)O)C(=O)N[C@@H](CCC(=O)O)C(N)=O)C(C)C)C(C)C)NC(=O)[C@H](CCCCN)NC1=O) [Compound 157]	-2.46E+03
Ac-NLKQKIKHVVKLKDE-NH2 [Compound 156]	-1.01E+02

query: Identify measured [0]222 mean residue ellipticity corresponding to Ac-VSKLRSQLVKRKQN-NH2 [Compound 132]
result: -1.10E+03

query: Identify measured [0]222 mean residue ellipticity corresponding to Ac-(cyclo-6,10)-VSKLR[EQLVK]RKQN-NH2 (Ac-VSKLREQLVKRKQN-NH2; lactam 6-10; SMILES CC(=O)N[C@H](C(=O)N[C@@H](CO)C(=O)N[C@@H](CCCCN)C(=O)N[C@@H](CC(C)C)C(=O)N[C@@H](CCCNC(=N)N)C(=O)N[C@H]1CCC(=O)NCCCC[C@@H](C(=O)N[C@@H](CCCNC(=N)N)C(=O)N[C@@H](CCCCN)C(=O)N[C@@H](CCC(N)=O)C(=O)N[C@@H](CC(N)=O)C(N)=O)NC(=O)[C@H](C(C)C)NC(=O)[C@H](CC(C)C)NC(=O)[C@H](CCC(N)=O)NC1=O)C(C)C) [Compound 152]
result: -4.85E+03

query: Identify measured [0]222 mean residue ellipticity corresponding to Ac-(cyclo-8,12)-NLKQKIK[EVVKK]KDE-NH2 (Ac-NLKQKIKEVVKKKDE-NH2; lactam 8-12; SMILES CC[C@H](C)[C@H](NC(=O)[C@H](CCCCN)NC(=O)[C@H](CCC(N)=O)NC(=O)[C@H](CCCCN)NC(=O)[C@H](CC(C)C)NC(=O)[C@H](CC(N)=O)NC(C)=O)C(=O)N[C@@H](CCCCN)C(=O)N[C@H]1CCC(=O)NCCCC[C@@H](C(=O)N[C@@H](CCCCN)C(=O)N[C@@H](CC(=O)O)C(=O)N[C@@H](CCC(=O)O)C(N)=O)NC(=O)[C@H](CCCCN)NC(=O)[C@H](C(C)C)NC(=O)[C@H](C(C)C)NC1=O) [Compound 161]
result: -1.80E+03

---

- Assay Name: Circular dichroism (CD) spectroscopy of linear and stapled peptides in water or 40% TFE/water (Example 3)
- Type: physicochemical
- Study Conditions: λ = 222 nm; in 40% TFE/water
Bridges are numbered along the chain shown (N, C = ends).
Test Readout: [0]222 mean residue ellipticity (deg cm^2 dmol^−1)
Give the number; deg cm^2 dmol^−1 is assumed, so skip it.

Completed entries (count: 5):
Substance	Reading Unit	Quantitative Result
Ac-(cyclo-5,9)-VSKL[KSQLE]KRKQN-NH2 (Ac-VSKLKSQLEKRKQN-NH2; lactam 5-9; SMILES CC(=O)N[C@H](C(=O)N[C@@H](CO)C(=O)N[C@@H](CCCCN)C(=O)N[C@@H](CC(C)C)C(=O)N[C@H]1CCCCNC(=O)CC[C@@H](C(=O)N[C@@H](CCCCN)C(=O)N[C@@H](CCCNC(=N)N)C(=O)N[C@@H](CCCCN)C(=O)N[C@@H](CCC(N)=O)C(=O)N[C@@H](CC(N)=O)C(N)=O)NC(=O)[C@H](CC(C)C)NC(=O)[C@H](CCC(N)=O)NC(=O)[C@H](CO)NC1=O)C(C)C) [Compound 154]	deg cm^2 dmol^−1	-8.78E+03
Ac-(cyclo-4,8)-NLK[EKIKK]VVKLKDE-NH2 (Ac-NLKEKIKKVVKLKDE-NH2; lactam 4-8; SMILES CC[C@H](C)[C@@H]1NC(=O)[C@H](CCCCN)NC(=O)[C@@H](NC(=O)[C@H](CCCCN)NC(=O)[C@H](CC(C)C)NC(=O)[C@H](CC(N)=O)NC(C)=O)CCC(=O)NCCCC[C@@H](C(=O)N[C@H](C(=O)N[C@H](C(=O)N[C@@H](CCCCN)C(=O)N[C@@H](CC(C)C)C(=O)N[C@@H](CCCCN)C(=O)N[C@@H](CC(=O)O)C(=O)N[C@@H](CCC(=O)O)C(N)=O)C(C)C)C(C)C)NC(=O)[C@H](CCCCN)NC1=O) [Compound 157]	deg cm^2 dmol^−1	-1.25E+04
Ac-(cyclo-6,10)-VSKLR[KQLVE]RKQN-NH2 (Ac-VSKLRKQLVERKQN-NH2; lactam 6-10; SMILES CC(=O)N[C@H](C(=O)N[C@@H](CO)C(=O)N[C@@H](CCCCN)C(=O)N[C@@H](CC(C)C)C(=O)N[C@@H](CCCNC(=N)N)C(=O)N[C@H]1CCCCNC(=O)CC[C@@H](C(=O)N[C@@H](CCCNC(=N)N)C(=O)N[C@@H](CCCCN)C(=O)N[C@@H](CCC(N)=O)C(=O)N[C@@H](CC(N)=O)C(N)=O)NC(=O)[C@H](C(C)C)NC(=O)[C@H](CC(C)C)NC(=O)[C@H](CCC(N)=O)NC1=O)C(C)C) [Compound 155]	deg cm^2 dmol^−1	-1.28E+04
Ac-VSKLRSQLVKRKQN-NH2 [Compound 132]	deg cm^2 dmol^−1	-1.14E+04
Ac-(cyclo-4,8)-VSK[ERSQK]VKRKQN-NH2 (Ac-VSKERSQKVKRKQN-NH2; lactam 4-8; SMILES CC(=O)N[C@H](C(=O)N[C@@H](CO)C(=O)N[C@@H](CCCCN)C(=O)N[C@H]1CCC(=O)NCCCC[C@@H](C(=O)N[C@H](C(=O)N[C@@H](CCCCN)C(=O)N[C@@H](CCCNC(=N)N)C(=O)N[C@@H](CCCCN)C(=O)N[C@@H](CCC(N)=O)C(=O)N[C@@H](CC(N)=O)C(N)=O)C(C)C)NC(=O)[C@H](CCC(N)=O)NC(=O)[C@H](CO)NC(=O)[C@H](CCCNC(=N)N)NC1=O)C(C)C) [Compound 150]	deg cm^2 dmol^−1	-9.75E+03

query: Identify measured [0]222 mean residue ellipticity corresponding to Ac-(cyclo-5,9)-VSKL[ESQLK]KRKQN-NH2 (Ac-VSKLESQLKKRKQN-NH2; lactam 5-9; SMILES CC(=O)N[C@H](C(=O)N[C@@H](CO)C(=O)N[C@@H](CCCCN)C(=O)N[C@@H](CC(C)C)C(=O)N[C@H]1CCC(=O)NCCCC[C@@H](C(=O)N[C@@H](CCCCN)C(=O)N[C@@H](CCCNC(=N)N)C(=O)N[C@@H](CCCCN)C(=O)N[C@@H](CCC(N)=O)C(=O)N[C@@H](CC(N)=O)C(N)=O)NC(=O)[C@H](CC(C)C)NC(=O)[C@H](CCC(N)=O)NC(=O)[C@H](CO)NC1=O)C(C)C) [Compound 151]
result: -1.33E+04

query: Identify measured [0]222 mean residue ellipticity corresponding to Ac-NLKQKIKHVVKLKDE-NH2 [Compound 156]
result: -8.57E+03

query: Identify measured [0]222 mean residue ellipticity corresponding to Ac-(cyclo-7,11)-VSKLRS[ELVKK]KQN-NH2 (Ac-VSKLRSELVKKKQN-NH2; lactam 7-11; SMILES CC(=O)N[C@H](C(=O)N[C@@H](CO)C(=O)N[C@@H](CCCCN)C(=O)N[C@@H](CC(C)C)C(=O)N[C@@H](CCCNC(=N)N)C(=O)N[C@@H](CO)C(=O)N[C@H]1CCC(=O)NCCCC[C@@H](C(=O)N[C@@H](CCCCN)C(=O)N[C@@H](CCC(N)=O)C(=O)N[C@@H](CC(N)=O)C(N)=O)NC(=O)[C@H](CCCCN)NC(=O)[C@H](C(C)C)NC(=O)[C@H](CC(C)C)NC1=O)C(C)C) [Compound 153]
result: -8.53E+03
